test system: U-251; test: NCI tumour cell line growth inhibition, 48 h
Activity calls are given as the source filed them. Cut-off read from the data, not from the text of the source: active = GI50 up to about 1.1 µM and inactive = higher.
readout.kind: GI50

molecule: Cc1nn(C(=O)c2ccc(Cl)cc2)c2c1C(/C=C/c1ccccc1)SC(=N)N2 (stereo not given)
GI50: > 10 µM (inactive)

molecule: O=C(N/N=C\c1ccccc1)Nc1cccc2ccccc12
GI50: 30.3 µM (inactive)

molecule: CCOC(=O)[C@@H]1C2C(=C[C@H]3[C@H]1C(=O)N1CCCC[C@H]31)CCCN2C(=O)OCc1ccccc1 (stereo not given in full)
GI50: 43.6 µM (inactive)

For CN1CCN(c2nc3ccccc3nc2C(=O)c2ccc(Cl)cc2)CC1 , what is its reported GI50? 57.1 µM (inactive)

Value lookup for GI50; key = OC1CCC(COC(c2ccccc2)(c2ccccc2)c2ccccc2)O1 (stereo not given) 18.8 µM (inactive)

Any idea what its GI50 is? The molecule is O=c1c2cc(O)ccc2n2nnc3ccc(NCCNCCO)c1c32 1.82 µM (inactive)

Consider the molecule shown here: Cc1cc(Cl)cc2c1NC(=O)C2(O)CC(=O)c1ccco1 (stereo not given) What is its recorded GI50? > 90.6 µM (inactive)

// query GI50 value for entry CC(/C(=N\Nc1ccccc1)c1ccc(O)cc1)C1C(=O)Oc2ccccc21 (stereo not given) > 100 µM (inactive)

Which GI50 value is on record for Cc1cc(-c2c(Br)cc(C(=O)O)n2C)on1 ? > 100 µM (inactive)

Fill in the blank: the reported GI50 of N#CCCN(CCCN(C(=O)N(c1ccccc1)c1ccccc1)c1ccccc1)C(=O)Nc1ccccc1 is ____. 92 µM (inactive)

----------
test system: SF-295; experiment: NCI tumour cell line growth inhibition, 48 h
Calls of active or inactive are those of the source. No stated cut-off is given here; in the data, active = GI50 up to about 1.1 µM and inactive = higher.
Reported GI50 values follow for various molecules

Return reported GI50; argument: [N-]=[N+]=Nc1cc(=O)oc2ccccc12 > 100 µM (inactive)

Given the entry Clc1ccc2c(NC3CCC(N4CCCCC4)CC3)ccnc2c1 (stereo unspecified) , report its measured GI50. 19.1 µM (inactive)

----------
tested on: M14; assay: NCI tumour cell line growth inhibition, 48 h
Activity calls are given as the source filed them. Cut-off read from the data, not from the text of the source: active = GI50 up to about 1.1 µM and inactive = higher.
Result category, one only: active, inactive

compound: CCOC(=O)c1c(CN2CCCC2)n(-c2ccccc2)c2cc(Br)c(O)cc12
group: inactive
//
compound: Cc1nnc(N/N=C2/C(=O)Nc3c(Cl)cc(Cl)cc32)n1N
group: inactive
//
compound: O=S(=O)(O)SC/C=C\CSS(=O)(=O)O
group: inactive
//
compound: CN(C)CCCNC(=O)c1cc(NS(=O)(=O)c2ccc3c(c2)C(=O)c2ccccc2C3=O)cn1C
group: inactive
//
compound: CCCC1C(=O)Nc2cccc3ncn(c23)C1=O (stereo not given)
group: inactive

Each compound tested received a call. Report the one for O=C1c2ccccc2C(=O)N1CCCCCCNOCCCN1C(=O)c2ccccc2C1=O . inactive

In this assay, the call recorded for C/C=C\C(CC(=O)OC)CC(=O)N(CCC1CN(S(=O)(=O)C(F)(F)F)c2ccccc21)Cc1ccc(OC)cc1OC (stereo not given) was what? inactive

What call does the record list for CC12CCC[C@@](C)(C(=O)OC3OC(CO)C(O)C(O)C3O)[C@H]1CCC13CC4CC(OC4(CO)[C@H]1O)[C@@H]23 (stereo not given in full) ? inactive

Please share the test call associated with CCOC(=O)C(C)(C)Oc1ccc2c(=O)cc(-c3ccccc3)oc2c1 . inactive

Identify the outcome logged in this assay for the compound shown: CC1(C)N=C(N)N=C(N)N1c1ccc(CCCCc2ccc(Cl)cc2Cl)cc1 active

----------
system: MDA-MB-231; assay: NCI tumour cell line growth inhibition, 48 h
Active and inactive are the calls of the source. No stated cut-off is given here; in the data, active = GI50 up to about 1.1 µM and inactive = higher.
GI50: recorded values

Below: 5 compounds and their reported GI50.
test.smiles: NCCP(=O)(O)O
system.under.test: MDA-MB-231
readout.kind: GI50
test.value: > 100 µM (inactive)

test.smiles: Nc1ccc(Oc2ccc(C34CC5CC(C3)CC(c3ccc(Oc6ccc(N)c(O)c6)cc3)(C5)C4)cc2)cc1O
system.under.test: MDA-MB-231
readout.kind: GI50
test.value: 1.57 µM (inactive)

test.smiles: CCOC(=O)/C(=C\NC(=S)Nc1ccc(Cl)c(Cl)c1)C(=O)c1ccccc1
system.under.test: MDA-MB-231
readout.kind: GI50
test.value: 25.9 µM (inactive)

test.smiles: CCOC(=O)/C(=C\c1c[nH]c2ccccc12)P(=O)(OCC)OCC
system.under.test: MDA-MB-231
readout.kind: GI50
test.value: 27.7 µM (inactive)

test.smiles: O=C(N/N=C\c1ccccc1)Nc1cccc2ccccc12
system.under.test: MDA-MB-231
readout.kind: GI50
test.value: 91.4 µM (inactive)

State the recorded GI50 for this entry: Cc1nc(O)nc2nc3ccc(Cl)cc3c(NCCNCCO)c12 11.7 µM (inactive)

----------
test system: UO-31; assay: NCI tumour cell line growth inhibition, 48 h
The source made the active and inactive calls. No stated cut-off is given here; in the data, active = GI50 up to about 1.1 µM and inactive = higher.
readout.kind: GI50

Please give the measured GI50 for this compound: O=S(=O)(O)SC/C=C\CSS(=O)(=O)O > 100 µM (inactive)

Using the record for COc1ccc(Nc2nc3ccccc3nc2-c2cccs2)cc1OC , report its GI50. > 10 µM (inactive)

Reported GI50 for CCOC(=O)[C@@]12C[C@](/C=C/OC)(O[Si](C)(C)C)[C@@]13c1cc(OC)c(OC)cc1CCN3C(=O)C2O (stereo partly specified) : what is it? > 100 µM (inactive)

What value of GI50 has been reported for the following compound? O=[N+]([O-])c1ccc(CSc2c3ccccc3nc3ccccc23)cc1 5.62 µM (inactive)

Which value of GI50 has been reported for Nc1nc(O)nc2sc3c(c12)CCCC3 in the records? 81.7 µM (inactive)

Requested read-out: GI50. Entry: Clc1ccc2c(NC3CCC(N4CCCCC4)CC3)ccnc2c1 (stereo unspecified) 13.9 µM (inactive)

----------
test system: U-251; assay: NCI tumour cell line growth inhibition, 48 h
Activity calls are given as the source filed them. No stated cut-off is given here; in the data, active = GI50 up to about 1.1 µM and inactive = higher.
readout.kind: GI50

Observe how each entry below is paired with its result.
molecule: C[N+]1=C(c2cccnc2/C=N/O)OCC1(C)C
test.value: > 100 µM (inactive)
//
molecule: CCOC(=O)c1[nH]cc(C)c1-c1ccn(-c2ccccc2)c1
test.value: 49.4 µM (inactive)
//
molecule: CC(=O)C(CN(Cc1ccccc1)Cc1ccccc1)C(c1ccccc1)c1c(O)c2ccccc2oc1=O (centres undefined)
test.value: > 100 µM (inactive)
//
molecule: O=C(CO[N+](=O)[O-])OC/C=C/c1ccccc1
test.value: > 100 µM (inactive)
//
molecule: CC1=C(C(=O)OC2CC3CCC2(C)C3(C)C)C2Nc3ccccc3N(C)C2O1 (centres undefined)
test.value: 3.58 µM (inactive)

Quick one: GI50 of CC1C2(C)OC(=N)C(C#N)(C(c3ccccc3)O2)C1(C#N)C#N (centres undefined) ? 18.7 µM (inactive)

Looking for the measured GI50 of O=[N+]([O-])c1nc(-c2ccccn2)[nH]c1[N+](=O)[O-] , can you help? 55.2 µM (inactive)

Request the reported GI50 associated with Cc1nc(O)nc2nc3ccc(Cl)cc3c(NCCNCCO)c12 8.73 µM (inactive)

So what does the record say about GI50 for Cc1c(O)oc2ccccc2c1=O ? > 100 µM (inactive)

Look at this molecule and give its reported GI50. O=[N+]([O-])c1ccc(/C=N\N=c2/ccc([N+](=O)[O-])c[nH]2)cc1 69 µM (inactive)

Record request: GI50 value, item COC(=O)/C=C1\C(=O)C=C2[C@@H]3C[C@H]4C[C@H](CC[C@@]4(C)N21)C3(C)NC(C)=O (some centres undefined) 17 µM (inactive)

Query (molecule): O=C(c1ccco1)N(Cc1cccnc1)C(=S)N(Cc1cccnc1)C(=O)c1ccco1 ; field requested: GI50 16.3 µM (inactive)

// lookup GI50 for CC1C=C(CCCCCCCCCCCC[C@@H](O)[C@@H]2CC[C@@H]([C@@H]3CC[C@@H](C(O)CCCCCCCCCCCCC4=C[C@H](C)OC4=O)O3)O2)C(=O)O1 (some centres undefined) 23.7 µM (inactive)

May I ask what GI50 has been recorded for Cc1cc(=O)c2ccccc2n1CCCCCCCCCCn1c(C)cc(=O)c2ccccc21 ? 15.6 µM (inactive)

Look up GI50: NC(=O)c1c2c(cc3c(=O)c4ccccc4[nH]c13)CCCC2 > 100 µM (inactive)

Which GI50 value belongs to CCOc1ccccc1/N=N/C1C(=O)N(C(=O)CC(=O)Nc2ccccc2Cl)N=C1C (centres undefined) ? 42.7 µM (inactive)

Reported GI50, molecule C=C1C(=O)O[C@@H]2C[C@@H](C)[C@@H]3C=CC(=O)[C@@]3(C)[C@@H](OC(=O)CC(=O)O[C@H]3[C@@H]4C(=C)C(=O)O[C@@H]4C[C@@H](C)[C@@H]4C=CC(=O)[C@]43C)[C@H]12 : ____ 0.0356 µM (active)

GI50 lookup needed for CN(C)CCCNC(=O)c1cccc2ccccc12 , thanks. > 100 µM (inactive)

Request the reported GI50 associated with Fc1cccc(F)c1C1SCC2=Nc3ccccc3CN21 (centres undefined) > 100 µM (inactive)
